Values were extracted from paper PMC7954794.

screen value overview
B1: S. cerevisiae Abp1 (full length; SH3 domain 535-592 mutated) / Hua2 (parent)
chain 1: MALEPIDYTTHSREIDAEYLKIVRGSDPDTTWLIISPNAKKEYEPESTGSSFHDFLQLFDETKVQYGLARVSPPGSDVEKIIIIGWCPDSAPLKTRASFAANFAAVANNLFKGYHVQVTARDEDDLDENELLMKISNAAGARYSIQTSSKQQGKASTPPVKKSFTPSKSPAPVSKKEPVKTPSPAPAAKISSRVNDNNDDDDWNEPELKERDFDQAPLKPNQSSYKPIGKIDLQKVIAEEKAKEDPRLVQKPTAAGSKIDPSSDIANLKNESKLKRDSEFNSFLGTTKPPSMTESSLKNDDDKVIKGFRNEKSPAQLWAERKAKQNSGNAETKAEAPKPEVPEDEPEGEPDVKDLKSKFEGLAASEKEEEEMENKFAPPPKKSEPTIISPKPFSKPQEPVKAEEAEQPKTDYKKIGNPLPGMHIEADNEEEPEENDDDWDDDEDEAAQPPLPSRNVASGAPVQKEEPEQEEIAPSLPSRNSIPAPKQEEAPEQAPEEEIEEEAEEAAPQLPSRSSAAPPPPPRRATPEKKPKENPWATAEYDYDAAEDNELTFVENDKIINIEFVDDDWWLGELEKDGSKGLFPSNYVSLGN
chain 2: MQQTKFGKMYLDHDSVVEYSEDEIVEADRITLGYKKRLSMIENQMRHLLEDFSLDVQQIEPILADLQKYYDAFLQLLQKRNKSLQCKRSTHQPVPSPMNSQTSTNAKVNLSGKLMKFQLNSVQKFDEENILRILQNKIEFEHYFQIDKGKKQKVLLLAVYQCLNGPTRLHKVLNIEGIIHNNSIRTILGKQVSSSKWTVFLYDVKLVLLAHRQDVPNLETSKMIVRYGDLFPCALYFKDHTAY

# Variants of: B1
# assay-notes: DHFR protein-fragment complementation in yeast (Abp1-DHFR F[1,2] x partner-DHFR F[3]), deep mutational scanning, second methotrexate selection vs reference
# recorded-conditions: with Hua2; S. cerevisiae, DHFR-PCA selection in liquid with methotrexate at 30 C, two 72 h selections (the score uses the second); reference = the pre-selection culture; not an affinity; value at the no-binding floor (a bound); scale: DMS score: mean over two replicates of log2(f_test/f_ref + 0.5)/ln 2, minus the synonymous-codon median

Past entries and their recorded results:
| mut | test-value |
| --- | --- |
| chain 1 P584G | < -3.06 |
| chain 1 I559C | -3.01 |
| chain 1 A539Q | -3.03 |

Would you kindly look at the next entry?
IN: Please report the recorded screen value for chain 1 E550L .
OUT: < -3.06
